So I've got a bunch of compounds here, and I need their GI50 values.
test system: HOP-62; assay: NCI tumour cell line growth inhibition, 48 h
The source made the active and inactive calls. Rule as the data show it: active = GI50 up to about 1.1 µM and inactive = higher.

| COMPOUND | MEASURE | RESULT VALUE |
| --- | --- | --- |
| COc1cc(-c2[o+]c3cc(O)cc(OC4OC(CO)C(O)C(O)C4O)c3cc2OC2OC(CO)C(O)C(O)C2O)cc(OC)c1O (stereo not given) | GI50 | > 100 µM (inactive) |
| O=C(CNc1nncs1)NO | GI50 | > 100 µM (inactive) |
| CCC(C)CCOC(=O)c1ccc(/N=C\c2ccc(/C=N/c3ccc(C(=O)OCCC(C)CC)cc3)cc2)cc1 (stereo not given) | GI50 | > 100 µM (inactive) |
| COC(=O)C1(Cc2ccccc2)Cc2cc3c(cc2C1O)CCC3 (stereo not given) | GI50 | 19.3 µM (inactive) |
| CN(C)Cc1cc(C(=O)/C=C/c2ccc(Cl)c(Cl)c2)cc(CN(C)C)c1O | GI50 | 2.24 µM (inactive) |
| O=[N+]([O-])C(=C/c1ccccc1)/C(=C\c1ccccc1)[N+](=O)[O-] | GI50 | 19.1 µM (inactive) |
| CC1=NN=C(N)N/C1=C\C(Sc1ccc(Cl)cc1)c1ccc([N+](=O)[O-])cc1 (stereo not given) | GI50 | > 100 µM (inactive) |
| CCCCCCCCCCCCCCC[C@@H](O)C[N+](C)(C)CCO | GI50 | 2.88 µM (inactive) |
| COc1ccc2c(C(=O)O)cc3ccccc3c2c1OC | GI50 | 69.3 µM (inactive) |
| O=C(/C=C/c1cccc([N+](=O)[O-])c1)c1cccnc1 | GI50 | > 100 µM (inactive) |

Below are 8 compounds. Give each one its GI50.
1. COc1ccc(Nc2nc3cc(C(F)(F)F)ccc3nc2C(=O)O)cc1OC
2. Nc1cccc(OCc2nc(N)nc(N)c2-c2ccc(Cl)cc2)c1
3. Cc1ccccc1N(CCC#N)C1=NN(C(=O)CC(=O)Nc2ccc(Cl)cc2)C(c2ccccc2)C1 (stereo not given)
4. CCOC1SC(SC)=NN1C(=O)C(OC(C)=O)C(OC(C)=O)C(OC(C)=O)C(OC(C)=O)C(=O)N1N=C(SC)SC1OCC (stereo not given)
5. CCOC(=O)C1N(S(=O)(=O)c2ccc(C)cc2)CCC12c1ccccc1N(C(C)=O)C2c1ccc(OC)c(OC)c1 (stereo not given)
6. O=C(/C=C/c1ccc(OCCCOc2ccc(/C=C/C(=O)c3ccccc3)cc2)cc1)c1ccccc1
7. Cc1c(C(=O)Nc2ccc(Cl)cc2)nc(N)nc1-c1cccc(Cl)c1
8. COc1ccc(-c2onc(-c3ccc([N+](=O)[O-])cc3)c2C2=NCCN2)cc1

A:
["35 µM (inactive)", "> 100 µM (inactive)", "> 100 µM (inactive)", "> 100 µM (inactive)", "> 100 µM (inactive)", "> 100 µM (inactive)", "> 100 µM (inactive)", "> 100 µM (inactive)"]

I'm hoping you can list GI50 for every compound here, please.
1. COc1ccc(C(OC(C)=O)C2C(=C(C#N)C#N)c3ccccc3C2=C(C#N)C#N)cc1 (stereo not given)
2. COC1=CC(=O)C2C(C1=O)[C@@H]1c3ccccc3OC[C@H]21 (stereo not given in full)

A:
["20.8 µM (inactive)", "> 100 µM (inactive)"]
